Test system: NCI-H522 lung
assay.details: NCI tumour cell line growth inhibition, 48 h
# Lookup of reported TGI keyed by entry
property.name: TGI (µM)

COc1ccc2c(c1)CN([C@@H](C)[C@H]1CC[C@H]3[C@@H]4CC[C@H]5C[C@@H](O)CC[C@]5(C)[C@H]4CC[C@]13C)CO2: 4.21
CN(C)CCCOc1cccc(NC2=C(Cl)C(=O)C(Nc3cccc(OCCCN(C)C)c3)=C(Cl)C2=O)c1: 0.437
Cc1cc(N/N=C/c2nc(-c3ccc(Cl)cc3)oc2C)c2cc(Br)ccc2n1: 4.51
COc1ccc(C2=[S+]C(c3ccccc3)(c3ccccc3)c3ccccc32)cc1: 79.8
O=C(Nc1cccc2[nH]c(C(F)(F)F)nc12)c1cc(Cl)ccc1Cl: 6.2
CCCc1nc(Cl)nc(Cl)c1Cl: 1.26
CC(=O)OC(C(=O)[O][Sn]([CH3])([CH3])[CH3])c1ccccc1 (stereo not given): 62.6
CSc1ncnc2c1ncn2CC(=O)C1CCC2C3CCC4=CC(=O)CCC4(C)C3CCC12C (stereo not given): 24.5
COc1ccc(-c2cnnn2-c2nonc2-n2cccc2)cc1OC: 11.3
COc1ccc2c(c1)C(=O)/C(=C/c1cccc(OCC(=O)Nc3nc(C)c(C)s3)c1)O2: 0.107
CCC1=CCN(c2cc(C)ccn2)OC1c1ccccc1 (stereo not given): 62.1
COc1ccc(Nc2nc(Nc3cc(C)[nH]n3)c3cc(OC)c(OC)cc3n2)cc1: 4.48
CN(Cc1ccc(F)cc1)c1ccc(CO)c(Cl)c1: 97.3
O=C1CCCC/C1=C\c1ccc([N+](=O)[O-])cc1: 30.2
Cc1cc(NCc2cc(Nc3ccnc4cc(Cl)ccc34)ccc2F)nc(N2CCOCC2)n1: 4.39
O=C1C(CO)=C[C@H](O)[C@H]2O[C@@H]12: 164
CCOC(=O)c1sc2c(c1OC(=O)c1cc(OC)c(OC)c(OC)c1)c(=O)n(-c1ccccc1)c(=S)n2-c1ccccc1: 63.1
CC(O)c1cc2c(s1)C(=O)c1c(C(C)O)csc1C2=O (stereo not given): 1.13
COc1ccc(/C=C2\C[C@H]3[C@@H]4CCC5=C/C(=N/O)CC[C@]5(C)[C@H]4CC[C@]3(C)\C2=N\O)cc1: 91.7
CCOC(=O)c1sc(-c2ccc(OS(=O)(=O)C[C@]34CCC(CC3=O)C4(C)C)c(C=O)c2)nc1C: 2.89
COc1ccc2cc(CNCCCCCCCCNCc3ccc4cc(OC)ccc4c3)ccc2c1: 69.4

----------
# Lookup of reported TGI keyed by entry
System: KM20L2 colon
assay.details: NCI tumour cell line growth inhibition, 48 h
property.name: TGI

C1=Cc2nc1c(-c1ccccc1)c1ccc([nH]1)c(-c1ccccc1)c1nc(c(-c3ccccc3)c3ccc([nH]3)c2-c2ccccc2)C=C1: > 100 µM
COC/N=C(\NC#N)NCOC: > 100 µM
O=C(NN1C(=O)C(Cl)C1c1cccc([N+](=O)[O-])c1)c1ccccc1O (stereo not drawn): > 100 µM
C#CCN(N=O)C(=O)ON1C(=O)CCC1=O: > 100 µM
CCOC(=O)/C=C/c1c(C)[nH]c(=O)[nH]c1=O: > 250 µM
c1cc2c3c(c1)c1cc4c(cc1c[n+]3CC2)OCO4: 49.7 µM
CC1CC2(S(=O)(=O)c3ccccc3)ON1CC2S(=O)(=O)c1ccccc1 (stereo not drawn): > 100 µM
CC1(C)COC2C(N(Cc3ccccc3)Cc3ccccc3)C(=O)N21 (stereo not drawn): > 100 µM
CCC1=CCN(c2cc(C)ccn2)OC1c1ccccc1 (stereo not drawn): > 100 µM
O=C1c2ccccc2C(=O)C12CCc1ccccc12: > 100 µM
C/C(=N\NC(=S)N1CCC(N2CCCCC2)CC1)c1ccccn1: 14.2 µM
O=c1c2c(-c3ccccc3)c3ccccc3nc2cnn1-c1ccccc1: > 100 µM
CC1=Nc2ccccc2SC(c2c(Cl)cccc2Cl)C1 (stereo not drawn): 2.98 µM
